- assay.procedure: protection of differentiated C2C12 cells from simvastatin – single point, plate reader, primary screen (AID 602340);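 note: myotubes were challenged with 10 µM simvastatin during compound exposure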
- assay.conditions: C2C12 myotubes + simvastatin, ATP luminescence, 48 h; at 7.49 µM; scaled: DMSO 0, geranylgeraniol control 100
Out of some 330,000 compounds screened, about 2,600 (0.79%) were called active.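 Rule for the calls: active = mean ATP rescue above about 67%, or every replicate alone reaching that limit (limit read from the data, passing the limit was not always enough); inconclusive = no clear call, values can overlap the other calls; inactive = mean under the limit and some replicate under it.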 This excerpt belongs to a sample that is enriched for actives.
Pick from label 1 for active, label 0 for inactive when you respond.

Reference set (4 entries):
input: GET /call?item= O=C(CCl)NNc1nc(-c2ccccc2)c2cc(Cl)ccc2n1 returns the recorded outcome of this test.
output: label 0

input: GET /call?item= COCC(=O)Nc1ccc2c(c1)[C@@H]1C[C@H](CC(=O)NCc3ccc(-c4ccccc4)cc3)O[C@H](CO)[C@@H]1O2 returns the recorded outcome of this test.
output: label 0

input: GET /call?item= CCCNC(=O)N[C@@H]1C=C[C@H](CC(=O)NC2CCC2)O[C@H]1CO returns the recorded outcome of this test.
output: label 0

input: GET /call?item= CC(=O)CCS(=O)(=O)c1ccc(C)c(C)c1 returns the recorded outcome of this test.
output: label 1

We next turn to a different compound, shown below.
input: GET /call?item= CC(OC(=O)c1ccc2noc(-c3ccccc3)c2c1)C(N)=O (stereo not given) returns the recorded outcome of this test.
output: label 0

----------
- assay.procedure: protection of differentiated C2C12 cells from simvastatin – single point, plate reader, primary screen (AID 602340);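 note: myotubes were challenged with 10 µM simvastatin during compound exposure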
- assay.conditions: C2C12 myotubes + simvastatin, ATP luminescence, 48 h; at 7.49 µM; stronger effect = higher value; scaled: DMSO 0, geranylgeraniol control 100
Out of some 330,000 compounds screened, about 2,600 (0.79%) were called active. The list comes from a sample in which actives are over-represented; it also holds close analogues and randomly drawn compounds.
recorded.metric: rescue of ATP level (%)
Report the value in % with no unit label.

Some compounds with recorded rescue of ATP level:
input: State its rescue of ATP level: Cc1ccc(S(=O)(=O)N(C)CC(=O)NC2CCCC2)cc1
output: 96.1

input: State its rescue of ATP level: CN(CC(=O)NC1CCCCC1)S(=O)(=O)c1cccc2cccnc12
output: -5.41

input: State its rescue of ATP level: COc1ccccc1-c1nnc(SCC(=O)N2CC(C)CC(C)C2)o1 (stereo not given)
output: 120

input: State its rescue of ATP level: C/C=C/c1ccc2c(c1)O[C@@H](CN(C)C(=O)c1ccncc1)[C@@H](C)CN([C@H](C)CO)S2(=O)=O
output: -3.45

input: State its rescue of ATP level: COc1ccccc1N1CCN(C(=O)CSc2nnc(-c3ccoc3C)o2)CC1
output: 2.45

Further cases:
input: State its rescue of ATP level: CC(C)CC#Cc1cnc2c(c1)C(=O)N([C@@H](C)CO)C[C@H](C)[C@@H](CN(C)S(=O)(=O)c1cn(C)cn1)O2
output: -12.3

input: State its rescue of ATP level: COC(=O)C1=C(C)N(C)C(C)=C(C(=O)OC)C1c1cccc(Br)c1
output: 89.2

input: State its rescue of ATP level: CCOc1ccc(CCNC(=O)Nc2ccccc2)cc1OCC
output: 1.69

input: State its rescue of ATP level: O=C(O)C1CC=C(Cl)CC1C(=O)NCc1ccccc1 (stereo not given)
output: -8.07

input: State its rescue of ATP level: C/C=C/c1ccc2c(c1)O[C@@H](CN(C)CC1CCOCC1)[C@@H](C)CN([C@H](C)CO)S2(=O)=O
output: 1.59

input: State its rescue of ATP level: O=C(NCCc1ccccc1)C1CC1
output: 7.36

input: State its rescue of ATP level: Cc1ccc(S(=O)(=O)NCC(=O)N(CC(=O)NC2CCCCC2)Cc2ccco2)cc1
output: 13.6

input: State its rescue of ATP level: O=C(CSc1nnc(-c2ccccc2O)o1)NC1CCCCC1
output: -6.5

input: State its rescue of ATP level: CCC1(CC)NC(=O)N(CC(=O)OCC(=O)Nc2ccc(C(F)(F)F)cc2)C1=O
output: 115

input: State its rescue of ATP level: Cc1cc2nc(C)n(CCCNC(=O)Nc3ccccc3)c2cc1C
output: 93.8

----------
Each item that follows carries a reported rescue of ATP level.
- assay.procedure: protection of differentiated C2C12 cells from simvastatin – single point, plate reader, primary screen (AID 602340);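 note: myotubes were challenged with 10 µM simvastatin during compound exposure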
- assay.conditions: C2C12 myotubes + simvastatin, ATP luminescence, 48 h; at 7.49 µM; stronger effect = higher value; scaled: DMSO 0, geranylgeraniol control 100
The whole screen tested about 330,000 compounds, of which about 2,600 (0.79%) were called active. The full list was thinned out, with actives kept by preference.
Report the value in % with no unit label.

input: State its rescue of ATP level: CN1C(=O)c2cc(NS(C)(=O)=O)ccc2OC[C@H]2O[C@H](CC(=O)NCc3ccccc3)CC[C@H]21
output: -11.2

Further cases:
input: State its rescue of ATP level: COCC(=O)Nc1ccc2c(c1)OC[C@H](C)N(C(=O)c1cnccn1)C[C@@H](C)[C@H](OC)CN(C)C2=O
output: 3.92

input: State its rescue of ATP level: CCCC(=O)Nc1ccc2c(c1)C(=O)N(C)C[C@@H](OC)[C@@H](C)CN(Cc1cncnc1)[C@@H](C)CO2
output: -0.178

input: State its rescue of ATP level: Cc1ccc(C2=NN(C(=O)CSc3nc(N)cc(N)n3)C(c3ccco3)C2)cc1 (stereo unspecified)
output: 159

input: State its rescue of ATP level: CCOC(=O)c1cc2ccccc2n1CC(=O)c1ccccc1
output: 14.7

input: State its rescue of ATP level: CCOc1ccc(NC(=O)CN(C)C(=O)Cc2sc(C)nc2-c2ccc(F)cc2)cc1OCC
output: 8.47

input: State its rescue of ATP level: C[C@@H]1CN([C@@H](C)CO)C(=O)c2cccc(NS(=O)(=O)c3cn(C)cn3)c2O[C@@H]1CN(C)Cc1ccc(Cl)c(Cl)c1
output: -13.1

input: State its rescue of ATP level: COc1ccc(C2=NN(C(=O)CSc3nnnn3C)C(c3ccco3)C2)cc1 (stereo unspecified)
output: -6.88

----------
- assay.procedure: protection of differentiated C2C12 cells from simvastatin – single point, plate reader, primary screen (AID 602340);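 note: myotubes were challenged with 10 µM simvastatin during compound exposure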
- assay.conditions: C2C12 myotubes + simvastatin, ATP luminescence, 48 h; at 7.49 µM; stronger effect = higher value; scaled: DMSO 0, geranylgeraniol control 100
Among all 330,000 compounds or so, about 2,600 (0.79%) were called active. For the sample, actives were picked, then their nearest neighbours and some compounds at random.
Each item that follows carries a reported rescue of ATP level.
Report the value in % with no unit label.

Some molecules with recorded rescue of ATP level:
input: State its rescue of ATP level: C[C@@H]1CCCCO[C@H](CN(C)C(=O)Nc2cccc3ccccc23)[C@H](C)CN([C@H](C)CO)C(=O)c2cc(NS(=O)(=O)c3cccs3)ccc2O1
output: 28.4

input: State its rescue of ATP level: CO[C@H]1CN(C)C(=O)c2ccc(NC(=O)C3CC3)cc2OC[C@@H](C)N(C)C[C@H]1C
output: 2.87

input: State its rescue of ATP level: O=S(=O)(Cc1ccccc1)NCC[C@@H]1CC[C@@H](NS(=O)(=O)c2ccccc2)[C@@H](CO)O1
output: 1.31

input: State its rescue of ATP level: C[C@@H]1CCCCO[C@@H](CN(C)Cc2ccc(Cl)c(Cl)c2)[C@@H](C)CN([C@@H](C)CO)C(=O)c2cc(NS(C)(=O)=O)ccc2O1
output: -1.95

input: State its rescue of ATP level: C/C=C/c1ccc([C@@H]2[C@@H](CO)N(C(=O)CC)[C@H]2CN(C)C(=O)C2CC2)cc1
output: 7.07

input: State its rescue of ATP level: O=S(=O)(c1ccccc1)N(CC(O)CN1CCCCC1)c1ccccc1 (stereo not given)
output: 152

Further cases:
input: State its rescue of ATP level: C[C@@H]1CCCCO[C@H](CN(C)S(C)(=O)=O)[C@@H](C)CN([C@H](C)CO)C(=O)c2cc(NS(=O)(=O)c3ccc(Cl)cc3)ccc2O1
output: -21.9

input: State its rescue of ATP level: OCCNc1nc(Nc2ccc(Cl)c(Cl)c2)nc2ccccc12
output: -27.5

input: State its rescue of ATP level: O=C(Nc1ccccc1)Oc1cccc2cccnc12
output: 101

input: State its rescue of ATP level: C[C@@H]1CCCCO[C@H](CN(C)C(=O)Nc2cccc3ccccc23)[C@@H](C)CN([C@H](C)CO)C(=O)c2cc(NS(=O)(=O)c3cccs3)ccc2O1
output: -12.1

----------
- assay.procedure: protection of differentiated C2C12 cells from simvastatin – single point, plate reader, primary screen (AID 602340);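 note: myotubes were challenged with 10 µM simvastatin during compound exposure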
- assay.conditions: C2C12 myotubes + simvastatin, ATP luminescence, 48 h; at 7.49 µM; scaled: DMSO 0, geranylgeraniol control 100
Screen size: about 330,000 compounds; about 2,600 (0.79%) were called active.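 The calls were made as follows: active = mean ATP rescue above about 67%, or every replicate alone reaching that limit (limit read from the data, passing the limit was not always enough); inconclusive = no clear call, values can overlap the other calls; inactive = mean under the limit and some replicate under it.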 The full list was thinned out, with actives kept by preference.
Pick from 1.0 for active, 0.0 for inactive when you respond.

input: GET /call?item= COc1ccc(-n2nnnc2CNC(=O)c2ccc3ccccc3c2)cc1 returns the recorded outcome of this test.
output: 0.0

input: GET /call?item= COc1cc(NC(=O)COC(=O)c2cc(S(=O)(=O)N3CCOCC3)ccc2F)cc(OC)c1 returns the recorded outcome of this test.
output: 1.0

We next turn to a different compound, shown below.
input: GET /call?item= COc1ccc(C2=NN(C(=O)CSc3nc(=O)n4ccc(C)cc4n3)C(c3ccc(C)cc3)C2)cc1 (stereo not drawn) returns the recorded outcome of this test.
output: 0.0
